This section presents compounds with their documented Activity values.
- Tested on: HEK293
- experiment summary: Cytotoxicity in HEK293 cells assessed as cell viability at 10 uM after 24 hrs by MTT assay
- Format: cell-based
- condition parameters: human, hek293, 24 h
The response must be a number in % with no trailing unit.

Record excerpt, results attached:
- COc1ccc(OC)c(-c2ccc(-c3cn(-c4cccc(C(=O)O)c4)nn3)cc2)c1: 71.8
- O=C(O)c1cccc(C(=O)Nc2ccc(-c3ccc4c(c3)OCCO4)cc2)c1: 50.3
- COc1ccc(F)c(-c2ccc(-n3cc(-c4cccc(C(=O)O)c4)nn3)cc2)c1: 91.1
- O=C(O)c1cccc(NC(=O)c2ccc(-c3ccc4c(c3)OCCO4)cc2)c1: 95.3
- COc1cc(OC)cc(-c2ccc(-n3cc(-c4cccc(C(=O)O)c4)nn3)cc2)c1: 94.3

The recorded Activity for entry COc1cccc(-c2ccc(-n3cc(-c4cccc(C(=O)O)c4)nn3)cc2)c1OC equals 85.6

Form field Activity, entry O=C(O)c1cccc(-c2cn(-c3ccc(-c4cccc5c4OCCO5)cc3)nn2)c1 : 90.5

Memo: COc1ccc(OC)c(-c2ccc(NC(=O)c3ccncc3F)cc2)c1 , reported Activity: 75.8

Per the record, O=C(O)c1cccc(-n2cc(-c3ccc(-c4ccc5c(c4)OCCO5)cc3)nn2)c1 has Activity of 71.7

COc1ccc(F)c(-c2ccc(-c3cn(-c4cccc(C(=O)O)c4)nn3)cc2)c1 has a reported Activity of 92.3

----------
- Test system: HEK293
- experiment summary: Cytotoxicity in HEK293 cells assessed as cell viability at 50 uM after 72 hrs by MTT assay
- Format: cell-based
- condition parameters: human, hek293, 72 h
parameter measured: Activity

* Cc1cccc(F)c1C(=O)Nc1cnc(-c2cc3c(cc2Cl)OC(F)(F)O3)cn1 | Toxic
* COc1cc(OC)cc(-c2ccc(-n3cc(-c4cccc(C(=O)O)c4)nn3)cc2)c1 | Non-Toxic
* COc1ccc(OC)c(-c2ccc(NC(=O)c3ccncc3F)cc2)c1 | Toxic
* COc1ccc(F)c(-c2ccc(-n3cc(-c4cccc(C(=O)O)c4)nn3)cc2)c1 | Non-Toxic
* COc1cccc(-c2ccc(-n3cc(-c4cccc(C(=O)O)c4)nn3)cc2)c1 | Non-Toxic
* O=C(O)c1cccc(-c2cn(-c3ccc(-c4ccc5c(c4)OCCO5)cc3)nn2)c1 | Non-Toxic
* C/C(O)=C(\C#N)C(=O)Nc1ccc(C(F)(F)F)cc1 [TERIFLUNOMIDE] | Non-Toxic
* O=C(Nc1ccc(-n2nc(C(F)(F)F)cc2C(F)(F)F)cc1)c1ccncc1F | Toxic

GET /value?item= O=C(O)c1cccc(C(=O)Nc2ccc(-c3ccc4c(c3)OCCO4)cc2)c1 &field=Activity returns Toxic

Form: molecule = Cc1c(-c2ccc(-c3ccccc3F)cc2)nc2ccc(F)cc2c1C(=O)O ; Activity = Non-Toxic

Kindly note the recorded Activity for COc1cccc(-c2ccc(-n3cc(-c4cccc(C(=O)O)c4)nn3)cc2)c1OC , which is Non-Toxic

----------
- Test system: HEK293
- experiment summary: Cytotoxicity in HEK293 cells assessed as cell viability at 50 uM after 72 hrs in presence of excess uridine by MTT assay
- Format: cell-based
- condition parameters: human, hek293, 72 h
parameter measured: Activity

Solved cases (4 shown):
- COc1ccc(F)c(-c2ccc(-n3cc(-c4cccc(C(=O)O)c4)nn3)cc2)c1: Non-Toxic
- O=C(O)c1cccc(NC(=O)c2ccc(-c3ccc4c(c3)OCCO4)cc2)c1: Non-Toxic
- Cc1cccc(F)c1C(=O)Nc1cnc(-c2cc3c(cc2Cl)OC(F)(F)O3)cn1 [ZEGOCRACTIN]: Toxic
- O=C(O)c1cccc(C(=O)Nc2ccc(-c3ccc4c(c3)OCCO4)cc2)c1: Non-Toxic

Memo: COc1cc(OC)cc(-c2ccc(-n3cc(-c4cccc(C(=O)O)c4)nn3)cc2)c1 , reported Activity: Non-Toxic
